# method_summary: single intravenous dose-escalation clinical trial, pharmacokinetics
# Format: in vivo
# assay_conditions: human, blood; healthy adults, single intravenous 40 mg
measured_property: AUC(0-t) (ng·h/mL)
Number in ng·h/mL, nothing else.

Query: AUC(0-t) lookup needed for CNCc1cn(S(=O)(=O)c2cccc(F)c2)c(-c2ccc(F)cc2F)c1OC [Fexuprazan] , thanks.
Response: 1070

###

# method_summary: pharmacokinetic experiment in male rats (oral and tail vein)
# Format: in vivo, rat
# assay_conditions: rat, plasma, IV 1 mg/kg
measured_property: AUC(0-t) (ng·h/mL)
Number in ng·h/mL, nothing else.

Query: AUC(0-t) lookup needed for CNCc1cn(S(=O)(=O)c2cccc(F)c2)c(-c2ccc(F)cc2F)c1OC [Fexuprazan] , thanks.
Response: 143
